Reference source: patent US20160237119A1

Molecular target: T1, c-Met-Fc chimera protein (UniProt P08581 25-932, limits assumed)
T1 construct: Captured on the SPR chip by an anti-IgG antibody; not shown: Fc part
T1 sequence (P08581 25-932 limits assumed, change not shown): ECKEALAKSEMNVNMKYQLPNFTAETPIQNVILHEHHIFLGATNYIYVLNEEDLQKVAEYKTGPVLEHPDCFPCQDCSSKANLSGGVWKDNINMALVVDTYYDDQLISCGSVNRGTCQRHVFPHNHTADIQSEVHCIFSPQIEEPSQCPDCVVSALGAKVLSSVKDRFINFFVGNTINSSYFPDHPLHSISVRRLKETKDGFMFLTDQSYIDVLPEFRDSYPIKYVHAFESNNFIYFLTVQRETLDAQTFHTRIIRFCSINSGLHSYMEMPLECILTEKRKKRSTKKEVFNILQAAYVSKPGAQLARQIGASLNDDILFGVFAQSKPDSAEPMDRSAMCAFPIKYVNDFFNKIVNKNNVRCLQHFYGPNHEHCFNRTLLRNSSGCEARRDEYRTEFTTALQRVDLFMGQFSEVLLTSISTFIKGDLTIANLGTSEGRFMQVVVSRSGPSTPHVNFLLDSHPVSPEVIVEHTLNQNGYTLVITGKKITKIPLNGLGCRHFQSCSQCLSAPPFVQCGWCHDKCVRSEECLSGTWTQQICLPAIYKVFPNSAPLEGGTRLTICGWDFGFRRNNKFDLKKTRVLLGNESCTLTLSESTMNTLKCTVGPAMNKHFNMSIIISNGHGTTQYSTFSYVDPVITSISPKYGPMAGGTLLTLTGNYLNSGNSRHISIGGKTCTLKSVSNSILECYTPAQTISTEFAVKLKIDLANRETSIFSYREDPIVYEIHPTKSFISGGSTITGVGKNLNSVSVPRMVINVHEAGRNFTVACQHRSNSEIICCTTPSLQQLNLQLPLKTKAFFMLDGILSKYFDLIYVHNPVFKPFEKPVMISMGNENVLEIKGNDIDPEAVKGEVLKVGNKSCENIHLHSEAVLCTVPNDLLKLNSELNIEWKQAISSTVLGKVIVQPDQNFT
Experiment: SPR (Biacore), c-Met-Fc captured by anti-IgG on CM5, single-cycle kinetics
pKd: −log10 of the molar value. Bridges are numbered along the chain shown (N, C = ends). Roman numbers before positions name the chains, in order. Where no end group is shown, it is not given here. [ ]: non-standard residue; d: D form. NMeR = CN[C@@H](CCCNC(=N)N)C(=O)O; NMeC = CN[C@@H](CS)C(=O)O
quantity: pKd

{"binder": "D5-4 dimeric peptide, linker Bis-MAL-PEG11 (thioether I:N-I:15, II:N-II:15 via Ac; not fully specified (N-terminus, bridges); also: dimer: two copies joined by Bis-MAL-PEG11 through an added C-terminal Cys (handle not in letters), Two macrocyclic peptides joined through their C-terminal Cys by Bis-MAL-PEG11; also called D5-4 Bis-MAL-PEG11; not shown: C-terminal handle of each copy (spacer residue plus Cys)) peptide 1: [dY]WYYAWDQTYKAFPCG peptide 2: [dY]WYYAWDQTYKAFPCG", "pKd": 8.68}
{"binder": "{CH2CO}-YRQFNRRTHEVWNLDCGC(Bis‑MAL‑PEG11) (thioether N-16; not fully specified (residue 1); also: dimer: two copies joined by Bis-MAL-PEG11 at Cys18, Two macrocyclic peptides joined through their C-terminal Cys by Bis-MAL-PEG11; also called D4-3 Bis-MAL-PEG11) [D4-3 dimeric peptide, linker Bis-MAL-PEG11]", "pKd": 9.05}
{"binder": "{CH2CO}-[dY]WYYAWDQTYKAFPCG (thioether N-15, also called D5-4 peptide; D5-4 Monomer) [D5-4]", "pKd": 8.34}
{"binder": "{CH2CO}-YISWNEFNSPNWRFITCG (thioether N-17, also called L5-2 peptide; L5-2 Monomer) [L5-2]", "pKd": 8.27}
{"binder": "{CH2CO}-YRQFN[NMeR]RTHEVWNLD[NMeC]G (thioether N-16, also called NMe (N6 + N16); N-methylated D4-3) [D4-3NMe]", "pKd": 8.28}
